Target: recombinant human 5-HT2B receptor (Homo sapiens, UniProt P41595)
Construct: expressed in transfected cells; host or cells: CHO-K1
Sequence (P41595 whole entry): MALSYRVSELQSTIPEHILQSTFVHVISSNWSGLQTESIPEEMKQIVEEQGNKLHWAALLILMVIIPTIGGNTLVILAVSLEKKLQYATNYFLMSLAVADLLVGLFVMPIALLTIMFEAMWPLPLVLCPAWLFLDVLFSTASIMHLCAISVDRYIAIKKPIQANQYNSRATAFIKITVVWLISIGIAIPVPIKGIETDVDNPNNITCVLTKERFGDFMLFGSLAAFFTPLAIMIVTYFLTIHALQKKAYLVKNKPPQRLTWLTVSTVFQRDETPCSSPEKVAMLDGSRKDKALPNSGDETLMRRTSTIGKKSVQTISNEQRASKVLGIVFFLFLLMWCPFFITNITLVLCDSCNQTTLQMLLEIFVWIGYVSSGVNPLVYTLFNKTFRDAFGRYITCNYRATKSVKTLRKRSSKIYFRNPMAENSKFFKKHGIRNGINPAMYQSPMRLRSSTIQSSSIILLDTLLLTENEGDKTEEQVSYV
Test: Radioligand binding to serotonin receptor 5-HT2B ([3H] Lysergic acid diethylamide, CHO-K1 membranes)
Settings: 5-HT2B
Where a name gives a salt, the structure may show the parent alone.
Each entry below lists one item and its recorded nH value.
Assay Endpoint: nH

Compound: CN1CCc2c(c3ccccc3n2Cc2ccccc2)C1.Cl [1.9(1)·HCl]
Assay Endpoint: nH
Result: 0.836
--
Compound: CN1CCc2c(c3ccccc3n2Cc2ccccc2)C1
Assay Endpoint: nH
Result: 0.552
--
Compound: Cc1ccc(S(=O)(=O)n2c3c(c4cc(C)ccc42)CN(C)CCC3)cc1 [1.8.1(3)·HCl]
Assay Endpoint: nH
Result: 0.784
--
Compound: Cc1ccc2c(c1)c1c(n2CCc2ccccc2)CCN(C)C1 [1.1.2(1-2)·HCl]
Assay Endpoint: nH
Result: 0,868
--
Compound: Cc1ccc2c(c1)c1c(n2CCc2ccccn2)CCN(C)C1 [1.1.2(2-3)·2HCl]
Assay Endpoint: nH
Result: 0.913
